- Experimental System: human recombinant 5-HT2A receptor (Homo sapiens)
- Sequence (P28223 whole entry): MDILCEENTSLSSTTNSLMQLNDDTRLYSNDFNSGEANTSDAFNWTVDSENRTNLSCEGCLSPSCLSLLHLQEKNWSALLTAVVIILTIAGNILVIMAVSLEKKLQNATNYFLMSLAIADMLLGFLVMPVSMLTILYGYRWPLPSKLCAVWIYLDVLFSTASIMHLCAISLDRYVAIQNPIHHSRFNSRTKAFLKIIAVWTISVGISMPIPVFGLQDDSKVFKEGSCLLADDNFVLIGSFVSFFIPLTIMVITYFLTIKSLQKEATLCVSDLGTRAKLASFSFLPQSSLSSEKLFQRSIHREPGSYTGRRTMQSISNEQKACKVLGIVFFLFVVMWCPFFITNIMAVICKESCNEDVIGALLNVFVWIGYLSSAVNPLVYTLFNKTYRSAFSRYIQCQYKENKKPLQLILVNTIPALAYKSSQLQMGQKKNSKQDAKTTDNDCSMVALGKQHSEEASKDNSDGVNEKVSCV
- Protocol: Affinity for 5-HT2A receptor binding sites (competitive radioligand binding, [3H]ketanserin)
- Assay Conditions: membranes of NIH3T3 with h5-HT2A, * = tested as hydrochloride salt
Structures can show the parent of a compound that is named as a salt.
# note: boundary value 0.05 µM maps to condition not met; Ki below it maps to condition met

- Compound: "CCN(CC)c1nc2c(c(-c3ccc(F)cc3)n1)CCCNC2 [Example 1]"
  Assigned Label: "condition met"
- Compound: "CCN(CC)c1nc2c(c(-c3ccc(Cl)cc3)n1)CCNCC2 [Example 60]"
  Assigned Label: "condition met"
- Compound: "CCN(CC)c1nc2c(c(-c3ccc(OC)cc3)n1)CCCNC2 [Example 3]"
  Assigned Label: "condition not met"
- Compound: "Fc1ccc(-c2nc(N3CCCCC3)nc3c2CNCCC3)cc1 [Example 20, hydrochloride]"
  Assigned Label: "condition not met"
- Compound: "Cc1ccc(-c2nc(N3CCCC3)nc3c2CNCC3)cc1 [Example 47]"
  Assigned Label: "condition not met"
- Compound: "C[C@H]1COCCN1c1nc2c(c(-c3ccc(F)cc3)n1)CNCC2 [Example 45]"
  Assigned Label: "condition met"
- Compound: "C[C@@H]1CCC[C@H](C)N1c1nc2c(c(-c3ccc(Cl)cc3)n1)CCNCC2 [Example 70]"
  Assigned Label: "condition not met"
- Compound: "CC1CCCCN1c1nc2c(c(-c3ccc(F)cc3)n1)CCCNC2 (stereo not drawn) [Example 6]"
  Assigned Label: "condition not met"
